Attribution: patent US12473289B2

measurement_target: Delta-5-Desaturase (D5D) (Mus musculus (Mouse))
Sequence (Q920L1 whole entry): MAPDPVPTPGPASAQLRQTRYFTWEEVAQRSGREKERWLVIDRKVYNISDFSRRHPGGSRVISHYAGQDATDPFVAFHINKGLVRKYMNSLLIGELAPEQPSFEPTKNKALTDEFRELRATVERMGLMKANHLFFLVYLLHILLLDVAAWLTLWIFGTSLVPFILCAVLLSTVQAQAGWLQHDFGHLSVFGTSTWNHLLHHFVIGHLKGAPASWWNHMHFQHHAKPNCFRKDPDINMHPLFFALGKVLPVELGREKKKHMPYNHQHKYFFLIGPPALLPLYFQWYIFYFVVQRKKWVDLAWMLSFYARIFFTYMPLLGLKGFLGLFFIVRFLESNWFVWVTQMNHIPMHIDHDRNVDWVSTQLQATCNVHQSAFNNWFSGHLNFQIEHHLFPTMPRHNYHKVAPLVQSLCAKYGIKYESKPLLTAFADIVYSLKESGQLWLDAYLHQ
assay_comment: In vivo measurement of Delta-5-Desaturase inhibitory activity (plasma AA/DGLA ratio in DIO mice)
assay_context: single oral dose 30 mg/kg, read-out: Average % D5D Inhibition expressed as Plasma Endogenous AA/DGLA Ratio
quantity_measured: inhibition in vivo at 30 mg/kg (%)

[
  {
    "smiles_text": "CNc1ccn2c(=O)c(-c3ccc(OCC(F)(F)F)cc3)c(C(F)(F)F)nc2c1",
    "quantity_measured": "inhibition in vivo at 30 mg/kg",
    "numeric_readout": 77
  },
  {
    "smiles_text": "O=c1c(-c2cnn(CC(F)(F)C(F)(F)F)c2)c(C(F)(F)F)nc2ccc(Cl)cn12",
    "quantity_measured": "inhibition in vivo at 30 mg/kg",
    "numeric_readout": 75
  },
  {
    "smiles_text": "O=c1c(-c2ccc(OCC(F)(F)F)cc2)c(C(F)(F)F)nc2ccccn12",
    "quantity_measured": "inhibition in vivo at 30 mg/kg",
    "numeric_readout": 64
  }
]
